Provide the reported kon of each item.
Experimental System: T1, Biotinylated TEM1-Fc (murine, UniProt Q9HCU0 18-687 (human entry), limits assumed, biotinylated (sites not given))
T1 construct: Ligand captured on the streptavidin sensor surface in the Biacore analysis; also called rTEM-1-Fc; not shown: Fc portion of a murine gamma heavy chain
T1 sequence (looked up): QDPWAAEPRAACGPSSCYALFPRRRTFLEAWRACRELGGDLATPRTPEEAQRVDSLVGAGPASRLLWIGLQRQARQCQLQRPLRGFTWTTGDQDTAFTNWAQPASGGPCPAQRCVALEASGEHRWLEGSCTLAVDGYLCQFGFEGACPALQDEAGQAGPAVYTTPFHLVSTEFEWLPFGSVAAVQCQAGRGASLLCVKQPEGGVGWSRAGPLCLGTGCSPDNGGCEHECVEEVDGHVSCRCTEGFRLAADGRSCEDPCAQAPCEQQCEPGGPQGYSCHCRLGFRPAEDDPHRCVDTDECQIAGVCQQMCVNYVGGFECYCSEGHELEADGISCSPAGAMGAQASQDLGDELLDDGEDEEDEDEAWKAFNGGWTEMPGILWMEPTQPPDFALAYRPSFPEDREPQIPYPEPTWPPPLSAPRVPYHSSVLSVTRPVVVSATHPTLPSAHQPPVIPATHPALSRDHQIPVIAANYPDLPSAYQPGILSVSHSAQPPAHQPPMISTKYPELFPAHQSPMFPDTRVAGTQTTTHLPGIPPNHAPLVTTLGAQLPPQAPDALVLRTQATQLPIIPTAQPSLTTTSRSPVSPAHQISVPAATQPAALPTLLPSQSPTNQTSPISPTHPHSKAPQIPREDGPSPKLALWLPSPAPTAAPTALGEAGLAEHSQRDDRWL
Assay Procedure: Biacore SPR, biotinylated TEM1-Fc on streptavidin surface, antibody as analyte, 1:1 model
Form field: result (number plus unit)

IN: Could you please provide reported kon for Antibody 7D3 (antibody, V domains shown, Rat monoclonal antibody from hybridoma, IgG2a/kappa; also called 7D3.F5.E8.D8; ATCC PTA-12538) VH: EVQLVESGGGLVQPKGSLKLSCAASGFDFKTYAMSWVRQAPGKGLDWIVTISTKGHNYATLYADSVKERFTISRDDSQSMVYLQMNNLKTEDTALYYCTVAGYNFDYWGQGVMVTVSS VL: DVVLTQTPSILSATIGQSVSISCRSSQSLLDSDGNTYLYWFLQRPGQSPQRLIYLVSNLGSGVPNRFSGSGSGTDFTLKISGVEAGDLGVYYCMQATHAPFTFGSGTKLEIK ? Thanks!
OUT: 65900 M⁻¹ s⁻¹

IN: Could you please provide reported kon for Antibody 15D10 (antibody, V domains shown, Rat monoclonal antibody from hybridoma, IgG2a/kappa; also called 15D10.G4.C12; ATCC PTA-12543) VH: QVQLMESGPGLVQPSETLSLTCTVSGFSLTNYNIHWVRQPPGKGLEWMGLMWSGGNTDYNSALKSRLTISRDTSKNQVFLKMNSLQSEDTTTYYCARDSGYGEGRLDYWGQGVMVTVSS VL: DIVLTQAPLSVSVTPGESASISCRSSKSLLGSKGINFLYWYLQKPGKSPQLLIYRMSNLASGVPDRFSGSGSETDFILKISKVETEDVGVYYCAQFLEYPNSFGAGTKLELK ? Thanks!
OUT: 993000 M⁻¹ s⁻¹

IN: Could you please provide reported kon for Antibody 15F8 (antibody, V domains shown, Rat monoclonal antibody from hybridoma, IgG2a/kappa; also called 15F8.G6.B4; ATCC PTA-12540) VH: EVQLVESGGGLVQPGRSMKLSCSASGFTFRNYYMAWVRQAPTRGLEWVASTGTGGDFTYYRDSVKGRFTISRDTAENTLYLQMDSLRSEDTATYYCARAYGYFDYWGQGVKVTVSS VL: DIVLTQSPTTLSVTPGETVSLSCRASHSVGTNLHWYQQKPNESPRLLIKYVSQSNSGIPSRFSASGSGTDFTLNIKNVEFNDVSSYFCQQTQSWPLTFGAGTKLEIK ? Thanks!
OUT: 742000 M⁻¹ s⁻¹
